Tested on: IMC-1 (IL-2 20 ng/mL)
Protocol description: relative IC50 (inflection point of fitted viability curve, relative to fitted max inhibition); higher = less sensitive
Cond: 72 h
Please respond with reported relative IC50 for every item in the list.
Numbers only, in nM.

Recorded results for 2 compounds are shown here.
C[C@@H]1CCN(C(=O)CC#N)C[C@@H]1N(C)c1ncnc2[nH]ccc12 = 616
CC(=O)O[C@H]1C(=O)[C@@]2(C)[C@H]([C@H](OC(=O)c3ccccc3)[C@]3(O)C[C@H](OC(=O)[C@H](O)[C@@H](NC(=O)c4ccccc4)c4ccccc4)C(C)=C1C3(C)C)[C@]1(OC(C)=O)CO[C@@H]1C[C@@H]2O = 3.31

I need relative IC50 for every entry listed below, if you could help.
1. CN1CCC(CNc2ccc3ncc(-c4cccc(OC(F)(F)F)c4)n3n2)CC1
2. COc1cccc2c1C(=O)c1c(O)c3c(c(O)c1C2=O)C[C@@](O)(C(=O)CO)C[C@@H]3O[C@H]1C[C@H](N)[C@H](O)[C@H](C)O1
3. c1ccc2c(CCNc3ccc(Nc4ccncc4)cc3)c[nH]c2c1
4. CS(=O)(=O)c1ccc(-c2cnc(N)c(C(=O)Nc3ccccc3)n2)cc1
5. Nc1nc(Cl)nc2c1ncn2[C@H]1C[C@H](O)[C@@H](CO)O1
6. C=CCc1cccc(/C=N/NC(=O)CN2CCN(Cc3ccccc3)CC2)c1O
7. Cc1cnc(Nc2ccc(OCCN3CCCC3)cc2)nc1Nc1cccc(S(=O)(=O)NC(C)(C)C)c1

stdout:
3130
45.3
2580
2660
86
3020
929

I need relative IC50 for every entry listed below, if you could help.
1. Nc1nc2[nH]cnc2c(=S)[nH]1
2. CC[C@@H]1C(=O)N(C)c2cnc(Nc3ccc(C(=O)NC4CCN(C)CC4)cc3OC)nc2N1C1CCCC1
3. COc1cc2c(NC3CCN(C(C)C)CC3)nc(N3CCC(F)(F)CC3)nc2cc1OCCCN1CCCC1
4. Nc1nc2[nH]cc(CCc3ccc(C(=O)N[C@@H](CCC(=O)O)C(=O)O)cc3)c2c(=O)[nH]1
5. CC(C)c1cc(-c2n[nH]c(=O)n2-c2ccc3c(ccn3C)c2)c(O)cc1O

stdout:
1: 1300; 2: 14.8; 3: 2450; 4: 146; 5: 32.3

I need relative IC50 for every entry listed below, if you could help.
1. Cc1ccc(NC(=O)c2ccc(CN3CCN(C)CC3)cc2)cc1Nc1nc(-c2cccnc2)cs1
2. C[C@@]1(C(=O)Nc2ccc(F)nc2)CCCN1c1nc(Nc2cc(C3CC3)n[nH]2)c2cccn2n1
3. CC(C)(C)c1cnc(CSc2cnc(NC(=O)C3CCNCC3)s2)o1
4. O=C(/C=C/c1cccc(S(=O)(=O)Nc2ccccc2)c1)NO

stdout:
1. 3320
2. 2850
3. 36.2
4. 173

---

System: normal primary NK cells, pool 2 (3 donors) (IL-2 2.5 ng/mL);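 note: normalised to DMSO-only wells as negative and benzethonium chloride as positive control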
Protocol description: percent inhibition of viability; higher = more inhibition
Cond: 72 h; 0.1 nM
Please respond with reported percent inhibition of viability for every item in the list.
Answers are plain numbers, in %.

COc1cccc2c1C(=O)c1c(O)c3c(c(O)c1C2=O)C[C@@](O)(C(=O)CO)C[C@@H]3O[C@H]1C[C@H](N)[C@H](O)[C@H](C)O1 [Doxorubicin] (max concentration tested 1000 nM) = -14
C[C@@H](Nc1cc(F)cc(F)c1)c1cc(C(=O)N(C)C)cc2c(=O)cc(N3CCOCC3)oc12 [AZD-8186] (max concentration tested 1000 nM) = -10.7
CNC(=O)c1ccc(-c2cnc3ncc(Cc4ccc5ncccc5c4)n3n2)cc1F [NVP-INC280] (max concentration tested 1000 nM) = -5.16
CC(C)C[C@H](NC(=O)[C@H](Cc1ccccc1)NC(=O)c1cnccn1)B(O)O [Bortezomib] (max concentration tested 1000 nM) = -2.25
CC(=O)O[C@@]12CO[C@@H]1C[C@H](O)[C@@]1(C)C(=O)[C@H](O)C3=C(C)[C@@H](OC(=O)[C@H](O)[C@@H](NC(=O)OC(C)(C)C)c4ccccc4)C[C@@](O)([C@@H](OC(=O)c4ccccc4)[C@H]21)C3(C)C [Docetaxel] (max concentration tested 1000 nM) = -10.9

stdin: Find the recorded percent inhibition of viability belonging to CC[C@@H]1C(=O)N(C)c2cnc(Nc3ccc(C(=O)NC4CCN(C)CC4)cc3OC)nc2N1C1CCCC1 [BI 2536] (max concentration tested 1000 nM) and report it.
stdout: -11.8
